Parameter IC50: see the listing below.
Experiment: Inhibition of Neisseria meningitidis 2C43 HldA by luminescent assay
Express it in µM; write the number only.

Please review the following examples before continuing.
Cc1nc(-c2cccc([N+](=O)[O-])c2)sc1C(=O)N(CC(=O)O)Cc1nc2ccccc2s1
75
Cc1nc(-c2ccc3ccccc3c2)sc1C(=O)N(CC(=O)O)Cc1nc2ccccc2s1
12
Cc1nc(-c2ccc3[nH]ccc3c2)sc1C(=O)N(CC(=O)O)Cc1nc2ccccc2s1
8.5

Kindly consider the entry below.
Lab note: "COc1cccc(-c2nc(C)c(C(=O)N(CC(=O)O)Cc3nc4ccccc4s3)o2)c1" gave IC50 of 6
